I'd appreciate it if you could supply inhibition values for the items below.
- Assay System: Glucose transporter (Leishmania mexicana)
- Protocol Description: ST_JUDE_LEISH: Cytotoxicity at 2uM final concentration against transgenic Leishmania Mexicana promastigotes LmGT2 that are glucose transport deficient and complemented with the L. Mexicana glucose transporter 2. Activity is measured by DNA content using SYBR green in vitro
- Format: functional
Give bare numbers, in %.

{"columns": ["Compound", "inhibition, %"],
 "data": [
  ["O=C(Nc1cc(C(F)(F)F)cc(C(F)(F)F)c1)N1CCC(CN2CCC(c3c[nH]c4ccccc34)CC2)CC1", 1.9],
  ["Cc1[nH]c2ccc(O)cc2c1C1CCN(CC2CCC(NC(=O)/C=C/c3ccc(Cl)c(Cl)c3)CC2)CC1 (centres undefined)", 0.57],
  ["O=C(/C=C/c1ccc(Cl)c(Cl)c1)NC1CCC(CN2CCC(c3c[nH]c4ccccc34)CC2)CC1 (centres undefined)", 1.83],
  ["CC[C@H]1CN2CC[C@H]1C[C@H]2[C@H](O)c1cc(-c2cccc(C)c2)nc2ccc(OC)cc12", 4.03]
]}

Provide each entry's inhibition from the list below.
1. CC(Cc1ccc(SCCSc2ccccc2)cc1)NCC(O)c1cccc(Cl)c1 (centres undefined)
2. Cc1[nH]c2cc(Cl)ccc2c1C1=CCN(CCCCC2(C)C(=O)Nc3ccccc32)CC1 (centres undefined)
3. COc1cccc(C(=O)C2CC2CN2CC=C(c3c[nH]c4cccc(Br)c34)CC2)c1 (centres undefined)
4. O=C(NC1CCC(CN2CCC(c3c[nH]c4ccccc34)CC2)CC1)c1cc2ccccc2o1 (centres undefined)

Key:
1.16
1.15
-0.34
-2.2
